Details: in methanol, 298.15 K
reported property: solubility (mole fraction)

[[record]]
structure_string = "O=[N+]([O-])N(CCO)CCO.O=[N+]([O-])O.O=[N+]([O-])O"
reported_property = "solubility (mole fraction)"
reading = 0.0106


====

Settings: in 1,4-dioxane, 313.15 K
reported property: solubility (mole fraction)

[[record]]
structure_string = "O=[N+]([O-])N(CCO)CCO.O=[N+]([O-])O.O=[N+]([O-])O"
reported_property = "solubility (mole fraction)"
reading = 0.562


====

Conditions: in dichloromethane, 303.15 K
reported property: solubility (mole fraction)

[[record]]
structure_string = "O=[N+]([O-])N(CCO)CCO.O=[N+]([O-])O.O=[N+]([O-])O"
reading = 0.367

